Hey, just so you know, these numbers are from ChEMBL document CHEMBL1649439.

Field: MIC. Provide a value for each of the compounds that follow.
test system: Enterobacter cloacae; experiment: Antimicrobial activity against Enterobacter cloacae isolate 153 expressing aac(6')-Ib-cr gene; format: functional

Consider the following illustrative entries.
Compound	Data Value
CCn1cc(C(=O)O)c(=O)c2ccc(C)nc21 [NALIDIXIC ACID]	> 256 µg/mL
NC[C@H]1O[C@H](O[C@H]2[C@H](O)[C@@H](O[C@H]3O[C@H](CO)[C@@H](O)[C@H](N)[C@H]3O)[C@H](N)C[C@@H]2N)[C@H](N)C[C@@H]1O [TOBRAMYCIN]	> 16 µg/mL
CC(C)(O/N=C(\C(=O)N[C@@H]1C(=O)N2C(C(=O)[O-])=C(C[n+]3ccccc3)CS[C@H]12)c1csc(N)n1)C(=O)O [CEFTAZIDIME]	> 32 µg/mL
CCn1cc(C(=O)O)c(=O)c2cc(F)c(N3CCNCC3)cc21 [NORFLOXACIN]	> 16 µg/mL

Next, consider the following compound.
QUERY: Consider the compound CO/N=C(\C(=O)N[C@@H]1C(=O)N2C(C(=O)O)=C(COC(C)=O)CS[C@H]12)c1csc(N)n1 [CEFOTAXIME] and give its measured MIC.
RESULT: 256 µg/mL

* * *

system: Enterobacter cloacae; test: Antimicrobial activity against Enterobacter cloacae isolate 37 expressing aac(6')-Ib-cr gene; type: functional
What MIC was measured for each of the following?

Given Smiles	MIC
CCn1cc(C(=O)O)c(=O)c2ccc(C)nc21	> 256 µg/mL
CCn1cc(C(=O)O)c(=O)c2cc(F)c(N3CCNCC3)cc21	> 16 µg/mL

Shifting focus to the compound that follows.
QUERY: Tell me the measured MIC of NC[C@H]1O[C@H](O[C@H]2[C@H](O)[C@@H](O[C@H]3O[C@H](CO)[C@@H](O)[C@H](N)[C@H]3O)[C@H](N)C[C@@H]2N)[C@H](N)C[C@@H]1O , please.
RESULT: > 16 µg/mL
